- TEST_METHOD_NOTES: Solubility in DMSO
- Format: physicochemical
MEASURED_PROPERTY: solubility

Suppose we examine the molecule "COc1ccc(S(=O)(=O)N(CC(=O)O)c2ccc(N(CC(=O)O)S(=O)(=O)c3ccc(OC)cc3)c3ccccc23)cc1" ; what solubility value has been reported?
≤ 50 mg/mL

====

- Test system: HaCaT cells
- TEST_METHOD_NOTES: Immunoblot of NRF2, NQO1, GCLM protein levels
- Assay type: cell-based, human
- STATED_CONDITIONS: 10 μM, 24 h, vs vehicle
MEASURED_PROPERTY: NQO1 protein level

SMI	TEST_TARGET	MEASURED_PROPERTY	RESULT
COc1ccc(S(=O)(=O)N(CC(N)=O)c2ccc(N(CC(N)=O)S(=O)(=O)c3ccc(OC)cc3)c3ccccc23)cc1	HaCaT cells	NQO1 protein level	Increased
COc1ccc(S(=O)(=O)N(CC(=O)O)c2cnc(N(CC(=O)O)S(=O)(=O)c3ccc(OC)cc3)c3ccccc23)cc1	HaCaT cells	NQO1 protein level	Increased

====

- TEST_TARGET: Kelch domain of KEAP1 (Homo sapiens)
- Sequence (Q14145 321-609 limits assumed): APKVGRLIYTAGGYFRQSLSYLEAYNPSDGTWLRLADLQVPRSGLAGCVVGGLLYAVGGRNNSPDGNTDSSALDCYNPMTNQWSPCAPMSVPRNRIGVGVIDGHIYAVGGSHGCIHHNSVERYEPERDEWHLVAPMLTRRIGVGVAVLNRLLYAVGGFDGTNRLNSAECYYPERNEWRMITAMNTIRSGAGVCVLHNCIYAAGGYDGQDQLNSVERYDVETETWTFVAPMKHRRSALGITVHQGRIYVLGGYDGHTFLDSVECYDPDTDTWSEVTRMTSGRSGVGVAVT
pKd: −log10 of the molar value.
MEASURED_PROPERTY: pKd

Suppose we examine the molecule "COc1ccc(S(=O)(=O)Nc2nnc(N(CC(=O)O)S(=O)(=O)c3ccc(OC)cc3)c3ccccc23)cc1" ; what pKd value has been reported?
< 5.00

====

- TEST_TARGET: Kelch domain of KEAP1 (Homo sapiens)
- TEST_METHOD_NOTES: Fluorescence anisotropy
- STATED_CONDITIONS: IC50 (nM) (95% CI), fluorescent NRF2 peptide / KEAP1 Kelch domain
MEASURED_PROPERTY: IC50

Suppose we examine the molecule "COc1ccc(S(=O)(=O)N(CC(=O)O)c2cc(-c3ccccc3)cc(N(CC(=O)O)S(=O)(=O)c3ccc(OC)cc3)c2)cc1" ; what IC50 value has been reported?
> 25000 nM
